system tested: T1, 4H1874-AA
T1 chain: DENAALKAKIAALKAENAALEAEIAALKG
protocol: two-hybrid library CCmax;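 further: natural log of median RNA to DNA barcode read ratio; higher means stronger binding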
details: mean of both orientations
Threshold-based label: interaction score under 1 gives Fulfilled, interaction score not under 1 gives Not fulfilled.

{"binder": "DEIAALEAEIAALKAKNAALKAENAALEG [4H123-AA]", "assigned category": "Fulfilled"}
{"binder": "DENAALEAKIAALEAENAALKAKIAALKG [4H1310-AA]", "assigned category": "Not fulfilled"}
{"binder": "DENAALEAKNAALKAKIAALKAEIAALEG [4H1513-AA]", "assigned category": "Fulfilled"}
{"binder": "DENAALEAKIAALKAKIAALKAENAALKG [4H1388-AA]", "assigned category": "Fulfilled"}
{"binder": "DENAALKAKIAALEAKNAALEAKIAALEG [4H1845-AA]", "assigned category": "Fulfilled"}

Input line: Consider DENAALKAEIAALEAKNAALKAEIAALKG [4H1594-AA] . Does its interaction score lie strictly below 1?
Output line: Not fulfilled

Input line: Would you kindly verify if interaction score of DENAALKAEIAALKAENAALKAKIAALEG [4H1629-AA] is strictly less than 1?
Output line: Fulfilled

Input line: Dear reviewer, please state whether DENAALEAKIAALKAEIAALEAKNAALEG [4H1351-AA] has interaction score strictly beneath 1.
Output line: Fulfilled

Input line: Consider the binder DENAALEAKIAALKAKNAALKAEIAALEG [4H1401-AA] . Is its interaction score strictly less than 1?
Output line: Not fulfilled

Input line: Here's an entry: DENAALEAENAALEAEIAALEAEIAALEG [4H1153-AA] . Is its interaction score below 1?
Output line: Fulfilled

Input line: Say whether its interaction score is strictly beneath 1. Entry: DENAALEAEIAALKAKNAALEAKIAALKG [4H1142-AA]
Output line: Fulfilled
